Data provenance is patent US20070196421A1.

- Tested on: S. epidermidis C621
- methodNotes: MIC by microtitre broth dilution
- Type: cell-based
- testParameters: Gram+, wt, Mueller Hinton broth, 37° C., 24 h
measurementKind: Minimum inhibitory concentration

// solved cases for Minimum inhibitory concentration follow
molecule	systemUnderTest	result
CC[C@@]1(O)C(=O)OCc2c1cc1n(c2=O)Cc2cc3ccccc3nc2-1	S. epidermidis C621	10^−4 Molar
COc1cccc2c1C(=O)c1c(O)c3c(c(O)c1C2=O)C[C@@](O)(C(=O)CO)C[C@@H]3O[C@H]1C[C@H](N)[C@H](O)[C@H](C)O1	S. epidermidis C621	10^−6 Molar
Sc1ncnc2nc[nH]c12	S. epidermidis C621	N
Nc1ncnc2c1ccn2[C@@H]1O[C@H](CO)[C@@H](O)[C@H]1O	S. epidermidis C621	N
CN(Cc1cnc2nc(N)nc(N)c2n1)c1ccc(C(=O)N[C@@H](CCC(=O)O)C(=O)O)cc1 [methotrexate]	S. epidermidis C621	N

Give one value of Minimum inhibitory concentration per listed molecule.
1. NC(=O)NO [hydroxyurea]
2. Nc1ccn([C@@H]2O[C@H](CO)[C@@H](O)[C@@H]2O)c(=O)n1
3. N.N.[Cl][Pt][Cl] [cisplatin]

["N", "N", "N"]
